- MEASUREMENT TARGET: D(2) dopamine receptor (Rattus norvegicus, UniProt P61169)
- Sequence (P61169 whole entry): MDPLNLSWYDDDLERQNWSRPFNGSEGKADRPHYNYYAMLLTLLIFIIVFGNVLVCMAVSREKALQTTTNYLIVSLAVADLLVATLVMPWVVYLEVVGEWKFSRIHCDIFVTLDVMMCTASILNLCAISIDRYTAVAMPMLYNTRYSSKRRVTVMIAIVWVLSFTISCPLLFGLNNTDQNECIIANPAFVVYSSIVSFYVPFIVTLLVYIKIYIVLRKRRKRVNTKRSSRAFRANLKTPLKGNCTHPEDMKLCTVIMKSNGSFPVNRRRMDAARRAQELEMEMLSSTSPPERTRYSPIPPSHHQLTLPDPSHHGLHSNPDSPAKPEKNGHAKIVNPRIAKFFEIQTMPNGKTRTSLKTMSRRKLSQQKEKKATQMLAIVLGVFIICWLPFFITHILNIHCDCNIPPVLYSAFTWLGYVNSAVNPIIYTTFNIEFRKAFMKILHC
- ASSAY NOTES: Inhibition of [3H]- spiperone binding to rat brain Dopamine receptor D2
pIC50: −log10 of the molar value.
Think of 7 as a floor: if pIC50 stands on it or above, it is TRUE; beneath it, FALSE.

For orientation, consider the following solved cases.
> print(dat)
                                   compound  assigned.label
1  CCN1CCN(C)C[C@@H](NC(=O)c2cc(Cl)c(NC)cc2OC)C1            TRUE
2  CCN1CCN(C)CC(NC(=O)c2cc(Br)c(NC)nc2OC)C1 (stereo unspecified)            TRUE
3  CCNc1nc(OC)c(C(=O)NC2CN(C)CCN(CC)C2)cc1Br (stereo unspecified)            TRUE
4  CCN1CCN(C)CC(NC(=O)c2cc(Cl)c(NC)nc2OC)C1 (stereo unspecified)            TRUE
5  CCN1CCN(C)C[C@H](NC(=O)c2cc(Cl)c(NC)nc2OC)C1           FALSE

**Q:** Check if pIC50 >= 7 (inclusive). Item: CCN1CCN(C)CC(NC(=O)c2cc(Cl)c(N)nc2OC)C1 (stereo unspecified)
**A:** FALSE

**Q:** Assess whether reported pIC50 for CCN1CCN(C)C[C@@H](NC(=O)c2cc(Cl)c(NC)nc2OC)C1 sits at 7 or higher.
**A:** TRUE

**Q:** Please tell me: is the compound CCN1CCN(C)C[C@@H](NC(=O)c2cc(Br)c(NC)nc2OC)C1 at or over 7 in terms of pIC50?
**A:** TRUE
